Tested on: RPMI-8226 leukemia
Assay: NCI tumour cell line growth inhibition, 48 h
Entries and their TGI values follow.
Please respond with the number in µM and leave the unit unwritten.

Please review the following examples before continuing.
- compound: "COc1cc2c3cc1Oc1c(OC)c(OC)cc4c1C(Cc1ccc(cc1)Oc1cc(ccc1O)CC3N(C)CC2)N(C)CC4 (stereo unspecified)"
  TGI / µM: 32.1
- compound: "O=[N+]([O-])c1cc2c(ccc3occc32)o1"
  TGI / µM: 44.3

Reported TGI of O=C1OC(OC/C(Br)=C(/Br)COC2OC(=O)C(Cl)=C2Cl)C(Cl)=C1Cl (stereo unspecified) : 5.19

Reported TGI of CC1=C(C(=O)Nc2ccccc2C)C(c2ccccc2C)C(C(=O)Nc2ccccc2C)=C(C)N1 : 81.3

Reported TGI of O=C1C(NS(=O)(=O)c2ccccc2)=C(N(Cc2ccccc2)Cc2ccccc2)C(=O)c2ccccc21 : 72.7

Reported TGI of CCC(=O)c1c(C(F)(F)F)n([O-])c2ccccc2[n+]1=O : 3.69

Reported TGI of CCc1nc(N)nc(N)c1C#CC(C)c1cc(-c2ccnc(C)c2)c2oc(C)nc2c1 (stereo unspecified) : 3.31

Reported TGI of CC(C)=CCc1cc(C2COc3cc4c(c(O)c3C2=O)C=CC(C)(C)O4)c(O)cc1O (stereo unspecified) : 24.4
